Test system: HL-60
Assay: NCI tumour cell line growth inhibition, 48 h
Calls of active or inactive are those of the source. Rule as the data show it: active = GI50 up to about 1.1 µM and inactive = higher.
Each entry below carries its reported GI50.

{"compound": "CSc1ccc(NC(=O)Nc2cc(C)ccn2)cc1", "targetSystem": "HL-60", "result": "> 100 µM (inactive)"}
{"compound": "NC(=S)N1N=C(c2ccc3c(c2)CCC3)CC1c1ccccc1 (stereo unspecified)", "targetSystem": "HL-60", "result": "7.93 µM (inactive)"}
{"compound": "C1CCCCC2(CCCCCCCCC3(CCC1)SCCS3)SCCS2", "targetSystem": "HL-60", "result": "> 100 µM (inactive)"}
{"compound": "CCOC(=O)[C@H](CCCNC(=O)OC(C)(C)C)NCc1ccc(OC)c(OC)c1", "targetSystem": "HL-60", "result": "> 100 µM (inactive)"}
{"compound": "C(=N/c1ccccc1C1SCCCS1)/c1ccccc1", "targetSystem": "HL-60", "result": "82.6 µM (inactive)"}

Field: GI50 (HL-60). Entry: COC1(OC)CC2C(=O)N(Cc3ccccc3)C1CC2S(=O)(=O)c1ccccc1 (stereo unspecified)
> 100 µM (inactive)

====

System: LOX IMVI
Experiment: NCI tumour cell line growth inhibition, 48 h
The source made the active and inactive calls. Rule as the data show it: active = GI50 up to about 1.1 µM and inactive = higher.
Each entry below carries its reported GI50.

Look over these answered cases.
{"molecule": "CCN(CC)Cc1ccc2cccnc2c1O", "GI50": "3.84 µM (inactive)"}
{"molecule": "CC1=CC(=O)/C(=C/Nc2nc(-c3cccc([N+](=O)[O-])c3)cs2)C(=O)O1", "GI50": "39.2 µM (inactive)"}
{"molecule": "CSc1ccc(NC(=O)Nc2cc(C)ccn2)cc1", "GI50": "> 100 µM (inactive)"}
{"molecule": "OCc1ccc(C2CC(c3ccco3)=NN2c2ccccc2)o1 (stereo unspecified)", "GI50": "> 100 µM (inactive)"}

Can you look up the measured GI50 of CCC12C=CCN3CCC4(C(=C(C(=O)OC)C1)Nc1ccccc14)[C@H]32 (stereo partly specified) for me?
20.8 µM (inactive)

Can you look up the measured GI50 of `N#C/C(=C\c1ccc2[nH]ccc2c1)C(=O)c1ccc(O)c(O)c1` for me?
63.7 µM (inactive)

Can you look up the measured GI50 of `CN(C(=O)c1ccc2c(c1)sc1c(=O)n(C)c3ccccc3c12)c1ccccc1` for me?
> 100 µM (inactive)

Can you look up the measured GI50 of CC(=O)NC(C)(C)C1CCC(C)CC1 (stereo unspecified) for me?
> 100 µM (inactive)

Can you look up the measured GI50 of `CCOC(=O)C1(C)C2=CC=C(O2)C(C)(C)C2=CC=C(O2)C(C)(C)C2=CC=C(O2)C(C)(C)C2=CC=C1O2` for me?
> 100 µM (inactive)

Can you look up the measured GI50 of COc1cccc(C2c3cc4c(cc3OC(NNc3ccccc3)C2C)OCO4)c1O (stereo unspecified) for me?
12.7 µM (inactive)

Can you look up the measured GI50 of `CN1CCC/C1=C1\C(=O)c2cccn2C1=O` for me?
> 100 µM (inactive)

====

System: NCI-H23
Experiment: NCI tumour cell line growth inhibition, 48 h
Activity calls are given as the source filed them. No stated cut-off is given here; in the data, active = GI50 up to about 1.1 µM and inactive = higher.
experimentalReadout: GI50

Look over these answered cases.
{"compound": "C#CCN(C(=O)C(F)(F)F)c1ccc(C(=O)c2ccc(N(CC#C)C(=O)C(F)(F)F)cc2)cc1", "targetSystem": "NCI-H23", "GI50": "23.2 µM (inactive)"}
{"compound": "CC(=O)[C@]12OC(=O)C3=C1[C@H](CC[C@@H]3C)[C@@H](C)C[C@H]2C=C(C)C", "targetSystem": "NCI-H23", "GI50": "9.14 µM (inactive)"}
{"compound": "CCC(=O)N/N=C(\\C=C\\c1cccc(O)c1)c1sc(Nc2ccc(C)cc2[N+](=O)[O-])nc1C", "targetSystem": "NCI-H23", "GI50": "2.22 µM (inactive)"}
{"compound": "Cc1ccc(-c2n[nH]c(=O)[nH]2)cc1", "targetSystem": "NCI-H23", "GI50": "> 100 µM (inactive)"}
{"compound": "COC(OC)C1OC(CO)C(n2ccc(N)nc2=O)C1O (centres undefined)", "targetSystem": "NCI-H23", "GI50": "> 100 µM (inactive)"}

Can you look up the measured GI50 of `Cc1cc2nc3[nH]nc(N)c3nc2cc1C` for me?
> 100 µM (inactive)

Can you look up the measured GI50 of `CCOC(=O)c1ccc(/N=C2/C(=S)N(c3ccc(C(=O)OCC)cc3)C(=N)N2/N=C/c2ccccc2)cc1` for me?
> 10 µM (inactive)

Can you look up the measured GI50 of CSc1ncc2c(n1)C(C#N)C1Sc3ccccc3N1C2=O (centres undefined) for me?
78 µM (inactive)

Can you look up the measured GI50 of CC(C)(C)OC(=O)[C@@H]1ON2O[C@H](OC3CCCC3(c3ccccc3)c3ccccc3)C[C@H]3OC(=O)[C@@H]1[C@H]32 (some centres undefined) for me?
46.5 µM (inactive)

====

Test system: ACHN
Test: NCI tumour cell line growth inhibition, 48 h
The source made the active and inactive calls. No stated cut-off is given here; in the data, active = GI50 up to about 1.1 µM and inactive = higher. Where a SMILES comes first, the peptide text is derived from it. Peptide text beside a SMILES is read from it. The star is where a group is joined. * marks the point of attachment. Boc = CC(C)(C)OC(=O)*; OBn = c1ccc(CO*)cc1; Bn = c1ccc(C*)cc1
Select the correct class. Options are 1.0 for active, 0.0 for inactive and nothing else.

{"compound": "Cc1cc(C)n(-c2ccnc3cc(Cl)ccc23)n1", "targetSystem": "ACHN", "classLabel": 0.0}
{"compound": "CC(C)CC(NC(=O)C(CCC(=O)OCc1ccccc1)NC(=O)OC(C)(C)C)C(=O)NC(COCc1ccccc1)C(=O)NC(Cc1ccccc1)C(=O)O (stereo not given) (Boc-E(OBn)LS(Bn)F-OH; configuration not given here)", "targetSystem": "ACHN", "classLabel": 0.0}
{"compound": "O=P1(C(O)c2ccccc2)N(Cc2ccccc2)[C@@H]2CCCC[C@H]2N1Cc1ccccc1 (stereo not given in full)", "targetSystem": "ACHN", "classLabel": 0.0}
{"compound": "Cc1cc(-c2nc3ccc(F)cc3s2)ccc1NC(=O)[C@H](C)N", "targetSystem": "ACHN", "classLabel": 0.0}
{"compound": "COc1ccc(N[C@H](CSc2ccc(C)cc2)c2ccc(F)cc2)cc1", "targetSystem": "ACHN", "classLabel": 0.0}

Check the results log: what was the call for `O=C(O)C(=Cc1ccc(-c2ccc([N+](=O)[O-])cc2)o1)C(=O)O` ?
0.0

Check the results log: what was the call for `Cc1c(C)c2c(c(N)c1C#N)C(=O)N(OS(=O)(=O)c1ccccc1)C2=O` ?
0.0

Check the results log: what was the call for `Cc1cc(N(CCC#N)CCC#N)ccc1/C=C1N=C(/C=C/c2ccccc2)OC(=O)N\1` ?
0.0

Check the results log: what was the call for CC(NC(=O)C(NC(=O)OC(C)(C)C)C(C)C)C(=O)NCC(=O)O (stereo not drawn) (Boc-Val-Ala-Gly-OH; configuration not given here) ?
0.0

====

Each entry below carries its reported GI50.
Tested on: PC-3
Test: NCI tumour cell line growth inhibition, 48 h
Activity calls are given as the source filed them. No stated cut-off is given here; in the data, active = GI50 up to about 1.1 µM and inactive = higher.

Look over these answered cases.
{"compound": "Cc1cc(NC2=CC(=O)C(=O)c3ccccc32)no1", "GI50": "10.3 µM (inactive)"}
{"compound": "COc1ccc(C(SC2C(O)C(CO)OC2n2ccc(N)nc2=O)(c2ccccc2)c2ccc(OC)cc2)cc1 (configuration not stated)", "GI50": "16.4 µM (inactive)"}
{"compound": "CN(C)CCCNC1=C(Cl)C(=O)c2c(O)ccc(O)c2C1=O", "GI50": "2.54 µM (inactive)"}
{"compound": "Cc1c(C)c2c(c(N)c1C#N)C(=O)N(OS(=O)(=O)c1ccccc1)C2=O", "GI50": "35.6 µM (inactive)"}
{"compound": "C[C@]12CC[C@@H]3c4cc(OCC(F)(F)F)c(O)cc4C(=O)C[C@H]3[C@@H]1CC[C@@H]2O", "GI50": "18.5 µM (inactive)"}

Can you look up the measured GI50 of CC1(C)OCC(/C=C\C(O)CC2(C)OCCO2)CO1 (configuration not stated) for me?
> 100 µM (inactive)

Can you look up the measured GI50 of `C=CCn1c(N)c(C#N)c(C#N)c1CCC` for me?
> 100 µM (inactive)

Can you look up the measured GI50 of `C(=N/c1ccccc1C1SCCCS1)/c1ccccc1` for me?
> 100 µM (inactive)

Can you look up the measured GI50 of Cc1cc(S(=O)(=O)Nc2nc(N)nc(N3N=CCC3C)n2)c(S)cc1Cl (configuration not stated) for me?
> 10 µM (inactive)

Can you look up the measured GI50 of `c1cc(CNCCN2CCNCC2)ccn1` for me?
> 100 µM (inactive)

Can you look up the measured GI50 of `Clc1ccc(/C=c2\nc(-c3ccccc3)n3c2nc2ccccc23)cc1` for me?
19.1 µM (inactive)

Can you look up the measured GI50 of CC(=O)OC1COC(Nc2nc(NCc3ccccc3)n(C)c(=O)c2N=O)C(OC(C)=O)C1OC(C)=O (configuration not stated) for me?
> 10 µM (inactive)
